Entries and their protein stability index
test system: Saccharomyces cerevisiae; experiment: protein stability index of tFT-peptide fusion (C-terminal peptide) (PSI (0-1 scale)); higher = more stable (slower turnover); settings: genetic background: wild type; temperature: 30 C

| Residue sequence | protein stability index |
| --- | --- |
| TDFRSGLIFIIV | 0.544 |
| VRFYVFSFSNWL | 0.586 |
| FRLKRFSGTGYG | 0.698 |
| LPPPSPSPLFPP | 0.669 |
| SVCEWSRVGIRL | 0.648 |
| PPSPPPPPKIPP | 0.627 |
| TPPPAPRPPLPS | 0.719 |
| VVWSWCWEYAAV | 0.625 |
| KKNKKNKKKKKN | 0.63 |
| SANCQQSRMFIT | 0.623 |
| PTRTAYHRQIPT | 0.773 |
| PPPPLSPPPAPA | 0.682 |
| LLVYLYFFFSCS | 0.374 |
| SCLVLDYCFSLV | 0.442 |
| ILLFLLPFSHRL | 0.658 |
| FLPPPPRRPFTR | 0.628 |
| LKSGAWFFRIGY | 0.66 |
| LLTLILRIFVLN | 0.225 |
| FARQSMLSKLQI | 0.587 |
| LATPPPPPLSPP | 0.789 |
| LFPLAPRRLAPP | 0.628 |
| LFFGLCFVFFGF | 0.378 |
| HRHCVSSYQKVS | 0.401 |
| ALLMDENTRVLF | 0.649 |
| LASSLTALRYPP | 0.742 |
| VPSPHLQPTVSP | 0.654 |
| LFYFFGKRPAHL | 0.781 |
| VNATDYDGQPIT | 0.679 |
| GGVGEFGEGALA | 0.689 |
| PSPGPPLPPPLF | 0.763 |
| LLINTARWSEAG | 0.662 |
| CAVPAVIDLDKF | 0.65 |
| RSRRFPPTRPPL | 0.74 |
| IKNEEKKLIESQ | 0.76 |
| PPPRPPPPLSHS | 0.632 |
| VRIIVVDLGGRR | 0.684 |
| PPPTPAPLLVPS | 0.598 |
| RVTRLDAIYFRI | 0.381 |
| LPSPPPRPPHHR | 0.672 |
| VFYRPFFVLFFV | 0.114 |
| FFVVGEEFCVSV | 0.649 |

---

tested on: Saccharomyces cerevisiae; experiment: protein stability index of tFT-peptide fusion (C-terminal peptide) (PSI (0-1 scale)); higher = more stable (slower turnover); conditions: genetic background: cdc34-1; temperature: 37 C
Rule: rule met for protein stability index not less than 0.6, rule not met for anything less.

| Residue sequence | Label |
| --- | --- |
| VGVCGSSGRVGG | rule met |
| NKYSMQNVLKSF | rule met |
| VCVLRWAVAPCR | rule not met |
| PFLLLVSPISSC | rule not met |
| MACLRLTVYVMG | rule not met |
| VFSGGGFFLKVV | rule met |
| IERGLMLTLCVH | rule not met |
| AGMLMCLYLFFV | rule not met |
| RVSIIYLGVLIS | rule not met |
| GGSKIGFTVGGG | rule met |
| MFLHLGLFIMSH | rule not met |
| FVCLCGFLQVLS | rule not met |
| PPSLFLLLKVFF | rule not met |
| GGYIINRWRTKN | rule not met |
| IILRPQYVHYFL | rule not met |
| NDVGGYFYVCSE | rule met |
| ETYCLPRVASGI | rule met |
| IHCLSIVVHGLS | rule not met |

---

tested on: Saccharomyces cerevisiae; experiment: protein stability index of tFT-peptide fusion (C-terminal peptide) (PSI (0-1 scale)); higher = more stable (slower turnover); conditions: genetic background: cdc34-1; temperature: 37 C
Entries and their protein stability index

| Residue sequence | protein stability index |
| --- | --- |
| RRRRHVDHSTQR | 0.495 |
| FPWGRIFLRLRT | 0.34 |
| VLVVRVLLSDLV | 0.178 |
| LVLFVVGGWVSL | 0.35 |
| FLLYSILLAFLL | 0.524 |
| LCFTSVFTLFIC | 0.288 |
| FQFTLWRTLLCS | 0.184 |
| SSRRVVLPLLVA | 0.336 |
| IHRSPLTLPLLV | 0.526 |
| AVLFAPPLSSNF | 0.712 |
| SGWGGGTWVKMG | 0.537 |
| LRRVHRIKLQVC | 0.254 |
| VVCLLGIFYGFC | 0.382 |
| WFLMVILYTVYG | 0.157 |
| GGSGGVSWRRVV | 0.68 |
| VRFPVFFIILFL | 0.0864 |
| RQALYFLMICGL | 0.508 |
| WSWVFVVLRFGR | 0.485 |
| LFVMVSVSGLVV | 0.0501 |
| AFFFCVVVLFSF | 0.194 |
| SRSFFRRLLFCF | 0.642 |
| ILFVCVCVLHVG | 0.112 |
| FCRLTFCFFAFL | 0.573 |
| RVTRLDAIYFRI | 0.265 |
| VLLCFFLGIVGF | 0.36 |
| GGTGGAGSRGQI | 0.641 |
| KLLISLTWFCVL | 0.395 |
| GCVVLNTVAFIC | 0.492 |
| TRVVSPNVILMC | 0.668 |
| LFSPLKGILSVM | 0.589 |
| ALNFFSLFMLFR | 0.221 |
| CFFLLLRVSLFP | 0.0815 |
| FNLWCRQLASIE | 0.181 |
| IRVLACFLFAVS | 0.202 |
| GREGETGSKAGR | 0.675 |
| RKVWSLCWFVHL | 0.49 |
| FSYLSFLPSLAA | 0.545 |
| ACVRLVLCVCRV | 0.281 |
| QERKILGRIKQA | 0.51 |
| SCYDYVILLQLS | 0.506 |
| SIQRKIRRMKEN | 0.559 |

---

test system: Saccharomyces cerevisiae; experiment: protein stability index of tFT-peptide fusion (C-terminal peptide) (PSI (0-1 scale)); higher = more stable (slower turnover); conditions: genetic background: das1 deletion; temperature: 30 C
Entries and their protein stability index
Measurement type: protein stability index

| Residue sequence | Measurement |
| --- | --- |
| NDEEKQALAEKA [YLR297W C-terminal 12 aa] | 0.683 |
| FADKIKPTKVAE [MCK1 C-terminal 12 aa] | 0.693 |
| ATSLSPNKASAS [YJL026C-A C-terminal 12 aa] | 0.685 |
| QKYLEELQKKKF [YET2 C-terminal 12 aa] | 0.712 |
| SSGCRRLMVGYN [ERC1 C-terminal 12 aa] | 0.698 |
| AAAIAGAAALLL [DAN1 C-terminal 12 aa] | 0.712 |
| AGTLDGRLAIWY [BPH1 C-terminal 12 aa] | 0.694 |
| NLGYSKDQVFKF [MCR1 C-terminal 12 aa] | 0.708 |
| VRDHFGVINSIW [YJL070C C-terminal 12 aa] | 0.715 |
| NSTSSKDKKKKN [SES1 C-terminal 12 aa] | 0.707 |
| NGNNAESGETKQ [SSC1 C-terminal 12 aa] | 0.681 |
| LPFGCVDDVNRQ [MSK1 C-terminal 12 aa] | 0.706 |

---

system: Saccharomyces cerevisiae; assay: protein stability index of tFT-peptide fusion (C-terminal peptide) (PSI (0-1 scale)); higher = more stable (slower turnover); conditions: genetic background: cdc34-1; temperature: 37 C
Measurement type: protein stability index

| Residue sequence | Measurement type | Measurement |
| --- | --- | --- |
| FMSAGVSWIFFV | protein stability index | 0.579 |
| YIFLPIALVFFP | protein stability index | 0.435 |
| AFFRCKCYVGTP | protein stability index | 0.568 |
| LAVFSSPELSFP | protein stability index | 0.727 |
| VFAFVVFLHFEC | protein stability index | 0.188 |
| RGYATTALHWVS | protein stability index | 0.668 |
| FFSFFLSFRLWF | protein stability index | 0.365 |
| VCNYRKLIWKHH | protein stability index | 0.52 |
| LYYSVIFLFLSW | protein stability index | 0.255 |
| VHGWRPLLFHTR | protein stability index | 0.648 |
| TLLMVSMTVRPL | protein stability index | 0.3 |
| TPPLPTTPTLNS | protein stability index | 0.641 |
| PRHLTPPPAPSA | protein stability index | 0.704 |
| VGGGCVVVVRWG | protein stability index | 0.589 |
| HRNILSIIIKNL | protein stability index | 0.541 |
| GAVGRWGWVSFV | protein stability index | 0.699 |
| RPPPAANFTRSS | protein stability index | 0.655 |
| GELDVRKLLKYF | protein stability index | 0.688 |
| FVLWWGWSWLVV | protein stability index | 0.213 |

Source listed as the supplement of paper PMC10724198.
